The reported numbers originate from the NIST ThermoML archive (doi:10.1016/j.jct.2013.03.026).

- Test name: Molar enthalpy of transition or fusion
- Reported conditions: Crystal; DSC
Rule: t for Molar enthalpy of transition or fusion not less than 30 kJ/mol, f for anything less.

Decide: is the reported value of Molar enthalpy of transition or fusion for c1ccc(-c2ccc(-c3ccccc3)cc2)cc1 [p-terphenyl] equal to or greater than 30 kJ/mol?
t

Decide: is the reported value of Molar enthalpy of transition or fusion for c1ccc(-c2ccc(-c3ccc(-c4ccccc4)cc3)cc2)cc1 [1,1':4',1'':4'',1'''-quaterphenyl] equal to or greater than 30 kJ/mol?
t

Decide: is the reported value of Molar enthalpy of transition or fusion for c1ccc(-c2cccc(-c3cccc(-c4cccc(-c5ccccc5)c4)c3)c2)cc1 [1,1':3',1'':3'',1'':3'',1''''-quinquephenyl] equal to or greater than 30 kJ/mol?
t

Decide: is the reported value of Molar enthalpy of transition or fusion for c1ccc(-c2ccccc2-c2ccccc2)cc1 [o-terphenyl] equal to or greater than 30 kJ/mol?
f

Decide: is the reported value of Molar enthalpy of transition or fusion for c1ccc(-c2cccc(-c3cccc(-c4ccccc4)c3)c2)cc1 [metaquaterphenyl] equal to or greater than 30 kJ/mol?
f

Decide: is the reported value of Molar enthalpy of transition or fusion for c1ccc(-c2ccccc2-c2ccccc2-c2ccccc2)cc1 [o-quaterphenyl] equal to or greater than 30 kJ/mol?
f

Decide: is the reported value of Molar enthalpy of transition or fusion for c1ccc(-c2ccccc2-c2ccccc2-c2ccccc2-c2ccccc2)cc1 [o-quinquephenyl] equal to or greater than 30 kJ/mol?
t

# next compound below
Decide: is the reported value of Molar enthalpy of transition or fusion for c1ccc(-c2cccc(-c3ccccc3)c2)cc1 [m-terphenyl] equal to or greater than 30 kJ/mol?
f

###

Quick reference: molar heat capacity at constant pressure of the listed items.
- Test name: molar heat capacity at constant pressure
- Reported conditions: 298.15 K; 101.33 kPa; Crystal; Drop calorimetry
Express your answer in J/K/mol, writing the number without its unit.

Example results:
Bench note: what molar heat capacity at constant pressure did c1ccc(-c2ccccc2-c2ccccc2-c2ccccc2-c2ccccc2)cc1 show?
444.3

Bench note: what molar heat capacity at constant pressure did c1ccc(-c2cccc(-c3cccc(-c4cccc(-c5ccccc5)c4)c3)c2)cc1 show?
443.7

Bench note: what molar heat capacity at constant pressure did c1ccc(-c2cccc(-c3cccc(-c4ccccc4)c3)c2)cc1 show?
359.5

Please find the next compound below.
Bench note: what molar heat capacity at constant pressure did c1ccc(-c2ccccc2-c2ccccc2-c2ccccc2)cc1 show?
359.1

###

- Reported conditions: Crystal; DTA
Response field label takes Met when Triple point temperature is strictly below 400 K and Not met in all other cases.

A record lists c1ccc(-c2ccc(-c3ccc(-c4ccccc4)cc3)cc2)cc1 . Is its Triple point temperature below 400 K?
Not met

A record lists c1ccc(-c2ccccc2-c2ccccc2)cc1 . Is its Triple point temperature below 400 K?
Met

A record lists c1ccc(-c2cccc(-c3cccc(-c4cccc(-c5ccccc5)c4)c3)c2)cc1 . Is its Triple point temperature below 400 K?
Met

A record lists c1ccc(-c2cccc(-c3cccc(-c4ccccc4)c3)c2)cc1 . Is its Triple point temperature below 400 K?
Met

A record lists c1ccc(-c2ccccc2-c2ccccc2-c2ccccc2-c2ccccc2)cc1 . Is its Triple point temperature below 400 K?
Not met

---
A record lists c1ccc(-c2ccc(-c3ccccc3)cc2)cc1 . Is its Triple point temperature below 400 K?
Not met

A record lists c1ccc(-c2cccc(-c3ccccc3)c2)cc1 . Is its Triple point temperature below 400 K?
Met
